- target desc: aromatase (Callithrix jacchus, UniProt Q95M61)
- Sequence (Q95M61 1-503): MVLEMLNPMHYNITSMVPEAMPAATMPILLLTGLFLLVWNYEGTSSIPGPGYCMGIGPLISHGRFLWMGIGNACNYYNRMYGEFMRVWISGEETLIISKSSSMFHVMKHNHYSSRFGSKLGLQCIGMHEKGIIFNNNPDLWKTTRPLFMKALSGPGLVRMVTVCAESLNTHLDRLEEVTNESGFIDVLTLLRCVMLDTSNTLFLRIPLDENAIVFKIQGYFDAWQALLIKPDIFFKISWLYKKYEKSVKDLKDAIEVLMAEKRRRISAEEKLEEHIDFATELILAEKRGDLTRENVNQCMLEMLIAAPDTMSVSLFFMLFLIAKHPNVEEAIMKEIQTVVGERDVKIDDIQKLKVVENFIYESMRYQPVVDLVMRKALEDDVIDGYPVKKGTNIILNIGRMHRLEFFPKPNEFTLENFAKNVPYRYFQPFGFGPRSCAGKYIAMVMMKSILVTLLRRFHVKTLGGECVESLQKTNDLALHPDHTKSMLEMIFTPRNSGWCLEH

compound: Cc1cccc(CN(c2ccc(C#N)cc2)n2cnnc2)c1 [meta-cetrozole]
scale unit: nM
IC50: 3.5
